# measurement_notes: MTT assay, 72 h exposure, Ca Ski cells
# Type: cell-based, human
# reported_conditions: human, Ca Ski cervical carcinoma cells vs MRC 5 fibroblast cells; Ca Ski vs MRC 5; read-out: selectivity index (IC50 MRC 5 / IC50 Ca Ski), times more cytotoxic to Ca Ski cells compared to MRC5
quantity_measured: selectivity ratio at 72 h

(Q) Query: selectivity ratio at 72 h; subject: CC(C)=CCCC(C)C1CCC2(C)C3CCC4C(C)(C(=O)O)C(OC5OCC(O)C(O)C5O)CC(O)C45CC35CCC12C (stereo not shown)
(A) ~8
